target: Sodium-dependent dopamine transporter (Homo sapiens, UniProt Q01959); note: assay procedure not described here
Sequence (Q01959 whole entry): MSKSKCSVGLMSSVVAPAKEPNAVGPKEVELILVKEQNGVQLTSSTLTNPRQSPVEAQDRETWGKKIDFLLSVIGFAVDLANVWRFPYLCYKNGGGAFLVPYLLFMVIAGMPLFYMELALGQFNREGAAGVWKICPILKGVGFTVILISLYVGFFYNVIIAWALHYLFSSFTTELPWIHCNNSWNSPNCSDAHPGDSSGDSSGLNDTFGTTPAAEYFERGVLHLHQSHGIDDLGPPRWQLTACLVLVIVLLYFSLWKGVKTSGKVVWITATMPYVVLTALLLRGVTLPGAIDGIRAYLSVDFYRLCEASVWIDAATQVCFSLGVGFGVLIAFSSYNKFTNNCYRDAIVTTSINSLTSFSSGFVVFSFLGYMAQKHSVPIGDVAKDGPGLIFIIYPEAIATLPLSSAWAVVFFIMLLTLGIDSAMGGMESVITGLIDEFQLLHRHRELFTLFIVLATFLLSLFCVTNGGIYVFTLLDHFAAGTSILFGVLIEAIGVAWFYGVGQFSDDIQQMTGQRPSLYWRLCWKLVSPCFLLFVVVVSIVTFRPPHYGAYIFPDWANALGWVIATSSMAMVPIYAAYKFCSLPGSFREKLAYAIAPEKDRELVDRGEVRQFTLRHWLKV
Endpoint: AC50

Item `C[N+]1(CCCCC[N+]2(C)CCCC2)CCCC1` : provide AC50
> 30 µM

Tell me its AC50 given `CC(=O)N[C@@H]1[C@@H](O)[C@H](O)[C@@H](CO)O[C@H]1O` as the entry.
> 30 µM

Identify AC50 associated with the compound `Cc1cn([C@H]2C=C[C@@H](CO)O2)c(=O)[nH]c1=O`
> 30 µM

Quickly give me recorded AC50 for `Nc1ccncc1N`
> 30 µM

Consider the compound CC[C@H]1CN2CC[C@H]1C[C@H]2[C@H](O)c1ccnc2ccc(OC)cc12 [HYDROQUININE] . State its measured AC50.
29.1 µM

Please give measured AC50 of the following entry: `CC(C)COC(=O)OCN1C(=O)CN(CCN2CC(=O)N(COC(=O)OCC(C)C)C(=O)C2)CC1=O`
> 30 µM

Quickly give me recorded AC50 for `CC[C@]1(O)C[C@H]2CN(CCc3c([nH]c4ccccc34)[C@@](C(=O)OC)(c3cc4c(cc3OC)N(C=O)[C@H]3[C@@](O)(C(=O)OC)[C@H](OC(C)=O)[C@]5(CC)C=CCN6CC[C@]43[C@@H]65)C2)C1`
> 30 µM

Provide one value: measured AC50 of Clc1ccc(C(OCCN2CCCCC2)c2ccccc2)cc1 (stereo not drawn)
1.09 µM

Just for reference, ChEMBL document CHEMBL5291721 is where these values come from.
